Target Entity: T1, cynomolgus EpCAM protein (cynomolgus monkey)
T1 construct: biotinylated in the Octet assays; also called cy EpCAM; cynomolgus monkey EpCAM
T1 sequence (Q1WER1 24-265): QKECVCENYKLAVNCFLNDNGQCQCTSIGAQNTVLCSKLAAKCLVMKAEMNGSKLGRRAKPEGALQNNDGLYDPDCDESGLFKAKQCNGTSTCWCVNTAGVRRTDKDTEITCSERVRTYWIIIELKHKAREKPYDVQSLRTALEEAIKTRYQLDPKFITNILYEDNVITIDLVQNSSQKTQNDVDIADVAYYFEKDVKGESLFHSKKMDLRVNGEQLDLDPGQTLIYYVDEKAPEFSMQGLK
Protocol Notes: colorimetric ELISA
Parameter: ELISA absorbance. Scope: all listed entries.
Outcome Measure: ELISA absorbance (absorbance)

>>> recorded_value("Llama anti-EpCAM single domain antibody EPL20 (VHH, E. coli periplasmic extract) VHH: QVQLQESGGGLVQAGGSLKLSCAASGNVFRAATMAWYRQAPEKQREMVATIASGGTTNYADFVKGRFTISRDNAKNTVYLQMNTLKPEDTAVYYCNAGYLTSLGPKNYWGQGTQVTVSS")
2.2
>>> recorded_value("Llama anti-EpCAM single domain antibody EPL117 (VHH, E. coli periplasmic extract) VHH: QVQLQESGGGLVQAGGSLRLSCAASGNIVRMTNMAWYRQAPGKQREFVATISAGGSTTYVDSVKDRFTISRDNTKNTVYLQMNYLKPEDTAVYYCATGSILTNRGAIPGSWGHGTQVTVSS")
0.6
>>> recorded_value("Llama anti-EpCAM single domain antibody EPL109 (VHH, E. coli periplasmic extract) VHH: QVQLQESGGGLVQPGGSLRLSCASSGFTLDDYTIGWFRQAPGKEREGVSCISRRDDSTYYADSVKGRFTISRDNAKNTVDLQMISLRPEDTAVYYCAATPRSYTLRCLGKFDFQGQGTQVTVSS")
0.1
>>> recorded_value("Llama anti-EpCAM single domain antibody EPL90 (VHH, E. coli periplasmic extract) VHH: QVQLQESGGGLVQAGGSLRLSCAASGFIFRAASMAWYRQSPGNERELVASISSGAFTNYADSVKARFTISRDNAKNTVYLQMNSLKPEDTAVYFCGATFLRSDGHHTINGQGTQVTVSS")
1.7
